- system_tested: T1, Recombinant human CD4 (R&D Systems, Cat. 10327-CD) (human, UniProt P01730 26-390, limits assumed)
- T1 construct: Bought reagent; also called huCD4
- protocol_description: BLI Octet, non-clonal supernatant on AMC sensor, 100 nM human CD4, 1:1 local fit;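 further: Single-concentration kinetics per supernatant, with the 1:1 model fitted across both the association and dissociation phases of the sensorgram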
experimental_readout: kon
Answer as a quantity: numeral, then unit.

Qu. Suppose we examine the binder 75110_13C13A (antibody, V domains shown, Tested as non-clonal AlivaMab Mouse Kappa hybridoma supernatant, captured by anti-mouse IgG Fc sensor) VH: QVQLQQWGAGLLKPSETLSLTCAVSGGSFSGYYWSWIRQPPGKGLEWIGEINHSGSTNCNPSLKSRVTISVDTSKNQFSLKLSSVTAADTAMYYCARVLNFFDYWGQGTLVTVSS VL: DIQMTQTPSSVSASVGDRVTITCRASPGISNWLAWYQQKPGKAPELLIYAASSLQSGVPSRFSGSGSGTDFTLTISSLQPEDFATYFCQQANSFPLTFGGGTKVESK ; what kon value has been reported?
Ans. 160000 M⁻¹ s⁻¹
